# measurement target: telomerase (Homo sapiens)
# Construct: placing cells, tissues, or preferably a cellular extract or other preparation containing telomerase in contact with; endogenous in cells
# Sequence (O14746 whole entry): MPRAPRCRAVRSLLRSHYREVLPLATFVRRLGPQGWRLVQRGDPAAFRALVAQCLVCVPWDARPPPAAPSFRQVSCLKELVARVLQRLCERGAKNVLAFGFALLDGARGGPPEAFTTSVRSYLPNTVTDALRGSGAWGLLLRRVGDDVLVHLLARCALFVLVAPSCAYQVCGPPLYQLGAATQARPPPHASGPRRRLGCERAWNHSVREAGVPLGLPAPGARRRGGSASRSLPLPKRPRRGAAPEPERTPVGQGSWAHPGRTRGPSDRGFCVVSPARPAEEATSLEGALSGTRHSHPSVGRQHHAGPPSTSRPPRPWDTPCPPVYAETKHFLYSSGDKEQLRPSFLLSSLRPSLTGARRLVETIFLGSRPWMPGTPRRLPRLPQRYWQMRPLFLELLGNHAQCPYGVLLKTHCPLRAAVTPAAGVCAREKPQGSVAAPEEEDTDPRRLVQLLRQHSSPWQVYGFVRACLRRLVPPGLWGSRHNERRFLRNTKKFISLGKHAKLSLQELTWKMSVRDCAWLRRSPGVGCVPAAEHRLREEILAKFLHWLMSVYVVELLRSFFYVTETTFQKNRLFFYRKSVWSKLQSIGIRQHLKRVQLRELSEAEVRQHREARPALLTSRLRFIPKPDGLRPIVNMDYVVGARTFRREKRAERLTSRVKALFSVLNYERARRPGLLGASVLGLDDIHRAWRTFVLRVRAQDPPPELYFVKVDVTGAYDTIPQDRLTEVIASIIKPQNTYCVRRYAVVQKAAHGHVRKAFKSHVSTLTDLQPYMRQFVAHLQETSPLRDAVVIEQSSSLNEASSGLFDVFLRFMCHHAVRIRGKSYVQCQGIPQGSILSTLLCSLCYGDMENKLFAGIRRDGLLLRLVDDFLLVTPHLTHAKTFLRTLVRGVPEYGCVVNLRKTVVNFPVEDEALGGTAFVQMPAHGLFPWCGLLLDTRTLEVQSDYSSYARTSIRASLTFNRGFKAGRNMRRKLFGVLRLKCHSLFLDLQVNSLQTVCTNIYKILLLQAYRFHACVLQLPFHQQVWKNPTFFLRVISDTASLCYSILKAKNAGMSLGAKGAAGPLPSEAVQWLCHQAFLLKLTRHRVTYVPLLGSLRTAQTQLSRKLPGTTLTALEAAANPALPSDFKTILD
# Sequence (O60832 whole entry partner): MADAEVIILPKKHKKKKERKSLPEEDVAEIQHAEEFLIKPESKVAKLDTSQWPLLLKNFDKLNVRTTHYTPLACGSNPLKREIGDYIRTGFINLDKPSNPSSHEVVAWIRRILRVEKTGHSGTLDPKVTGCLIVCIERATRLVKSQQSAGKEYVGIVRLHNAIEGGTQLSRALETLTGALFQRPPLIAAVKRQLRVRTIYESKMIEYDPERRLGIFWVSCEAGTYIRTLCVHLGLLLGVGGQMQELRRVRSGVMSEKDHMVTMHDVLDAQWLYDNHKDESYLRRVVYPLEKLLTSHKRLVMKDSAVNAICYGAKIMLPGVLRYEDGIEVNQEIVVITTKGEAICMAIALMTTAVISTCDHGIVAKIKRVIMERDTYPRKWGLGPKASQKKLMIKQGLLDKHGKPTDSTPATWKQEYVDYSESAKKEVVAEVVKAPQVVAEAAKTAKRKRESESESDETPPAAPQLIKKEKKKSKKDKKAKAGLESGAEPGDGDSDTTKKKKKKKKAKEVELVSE
# Sequence (Q9NPE3 whole entry partner): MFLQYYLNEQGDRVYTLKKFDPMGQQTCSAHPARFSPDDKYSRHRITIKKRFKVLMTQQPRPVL
# Sequence (Q9NX24 whole entry partner): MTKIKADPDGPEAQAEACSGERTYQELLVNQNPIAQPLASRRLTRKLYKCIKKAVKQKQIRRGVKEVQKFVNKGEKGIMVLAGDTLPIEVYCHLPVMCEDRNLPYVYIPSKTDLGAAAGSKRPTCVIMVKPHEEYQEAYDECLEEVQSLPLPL
# Sequence (Q9NY12 whole entry partner): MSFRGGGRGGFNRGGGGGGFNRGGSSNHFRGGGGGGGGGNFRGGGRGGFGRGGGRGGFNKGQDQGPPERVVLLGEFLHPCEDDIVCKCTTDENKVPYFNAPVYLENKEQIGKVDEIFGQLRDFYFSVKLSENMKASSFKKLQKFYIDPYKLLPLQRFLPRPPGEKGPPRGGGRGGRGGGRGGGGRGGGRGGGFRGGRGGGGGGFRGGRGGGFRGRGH
# test details: telomerase inhibition, IC50 (Table 1)
# Assay type: biochemical
# measurement setup: Table 1; approximate values only; read-out: IC50
Label true when IC50 is strictly below 30 µM; at or above that, label false.

Check out these entries, answers already filled in.
[[record]]
molecule = "Nc1c(C(=O)c2ccc(Cl)c(Cl)c2)sc2nc(C=NNc3ccccc3)ccc12"
class_label = "false"

[[record]]
molecule = "CC(C)(C)c1ccc(-c2noc(-c3sc4nc(C=O)ccc4c3N)n2)cc1"
class_label = "false"

[[record]]
molecule = "Nc1c(C(=O)c2ccc(Cl)cc2Cl)sc2nc(C=NC3C4CC5CC(C4)CC3C5)ccc12 (centres unmarked)"
class_label = "true"

[[record]]
molecule = "Nc1c(-c2ncc(C(F)(F)F)cc2Cl)sc2nc(C=O)ccc12"
class_label = "true"

[[record]]
molecule = "Cc1ccc(NN=Cc2ccc3c(N)c(C(=O)c4ccc(Br)cc4)sc3n2)cc1"
class_label = "true"


q: Please state whether IC50 is below 30 µM for Nc1c(C(=O)c2ccc(Cl)c(Cl)c2)sc2nc(C=NNc3ccc(Cl)cc3)ccc12
a: true

q: What do you get for Nc1c(C(=O)c2ccc(Cl)c(Cl)c2)oc2nc(C=O)ccc12 ?
a: false
